# reported Cyno CGRP Receptor/Blank Cells Specific Binding; entries follow
# target system: T1, cynomolgus monkey CGRP receptor (cynomolgus monkey, UniProt A0A2K5VQ71 34-472)
# T1 construct: whole, on cells; Presented as detergent-solubilized lysate of HEK cells expressing the cynomolgus receptor; also called Cyno CGRP Receptor; Cynomolgus Monkey CGRP Receptor/HEK detergent-solubilized cell lysate
# T1 sequence (A0A2K5VQ71 entry or part of it): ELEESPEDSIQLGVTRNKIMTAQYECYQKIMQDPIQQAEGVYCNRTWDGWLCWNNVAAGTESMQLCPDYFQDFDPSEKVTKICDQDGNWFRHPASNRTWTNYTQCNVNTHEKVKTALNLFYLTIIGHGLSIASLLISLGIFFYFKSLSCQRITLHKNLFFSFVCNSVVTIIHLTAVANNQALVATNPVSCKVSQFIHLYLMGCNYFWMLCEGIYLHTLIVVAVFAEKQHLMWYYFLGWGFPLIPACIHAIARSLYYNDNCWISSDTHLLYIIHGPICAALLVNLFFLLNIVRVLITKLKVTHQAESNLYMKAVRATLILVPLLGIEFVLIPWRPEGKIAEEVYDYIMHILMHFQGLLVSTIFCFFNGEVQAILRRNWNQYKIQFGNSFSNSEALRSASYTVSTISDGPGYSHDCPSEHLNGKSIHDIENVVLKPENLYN
# experiment notes: yeast-displayed Fab, FACS, detergent-solubilized lysate of cynomolgus CGRP receptor/HEK cells vs blank cells
Write the value in ratio as a bare number.

# get_value(readout='Cyno CGRP Receptor/Blank Cells Specific Binding', item= anti-CGRP receptor variant 06, yeast-displayed Fab (Fab, V domains shown, also called Variant Ab ID 06) VH: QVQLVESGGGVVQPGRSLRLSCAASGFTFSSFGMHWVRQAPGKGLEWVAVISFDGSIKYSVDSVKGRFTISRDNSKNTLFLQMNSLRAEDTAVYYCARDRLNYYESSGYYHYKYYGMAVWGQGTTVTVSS VL: QSVLTQPPSVSAAPGQKVTISCSGSYSNIGRKSVSWYQQLPGTAPKLLIYDNNKRPSGIPDRFSGSKSGTSATLGITGLQTGDEADYYCGTWDSRLSAVVFGGGTKLTVLG )
4.8

# get_value(readout='Cyno CGRP Receptor/Blank Cells Specific Binding', item= anti-CGRP receptor variant 04, yeast-displayed Fab (Fab, V domains shown, also called Variant Ab ID 04) VH: QVQLVESGGGVVQPGRSLRLSCAASGFTFSSFGMHWVRQAPGKGLEWVAVISFDGSIKYSVDSVKGRFTISRDNSKNTLFLQMNSLRAEDTAVYYCARDRLNYYRSFGYYGYHYYGMAVWGQGTTVTVSS VL: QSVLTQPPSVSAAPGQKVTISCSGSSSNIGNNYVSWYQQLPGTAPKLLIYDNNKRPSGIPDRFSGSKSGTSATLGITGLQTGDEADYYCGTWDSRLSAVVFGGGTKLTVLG )
3.1

# get_value(readout='Cyno CGRP Receptor/Blank Cells Specific Binding', item= anti-CGRP receptor variant 09, yeast-displayed Fab (Fab, V domains shown, also called Variant Ab ID 09) VH: QVQLVESGGGVVQPGRSLRLSCAASGFTFSSFGMHWVRQAPGKGLEWVAVISFAGEIDYYVDSVKGRFTISRDNSKNTLFLQMNSLRAEDTAVYYCARDRLNYYESSGYYHYKYYGMAVWGQGTTVTVSS VL: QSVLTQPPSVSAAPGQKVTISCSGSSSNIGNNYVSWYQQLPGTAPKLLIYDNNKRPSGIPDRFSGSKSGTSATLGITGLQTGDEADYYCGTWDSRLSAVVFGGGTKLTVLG )
2.3
